We begin with a simple list: items and their reported Papp.
- Test system: P-glycoprotein (human)
- protocol: Apparent permeability in MDCK-MDR1 cells expressing human P-glycoprotein
- Assay type: ADME, cell-based, Canis lupus familiaris
- condition-label: dog
Reply with a number, then the unit it belongs to.

{"cpd-smiles": "Cc1c(Nc2nc(N)c3c(C#N)c(N4CCC[C@H]4C)n(C)c3n2)cnn1[C@@H]1CCOC1", "observed-value": "4.6 ×10⁻⁶ cm/s"}

Supply reported Papp belonging to this compound: Cc1c(Nc2nc(N)c3c(C#N)c(N4CCC[C@H]4C)n(C)c3n2)cnn1[C@H]1CCOC1 4.3 ×10⁻⁶ cm/s

###

- Test system: BCRP (human)
- protocol: Apparent permeability in MDCK cells expressing human BCRP
- Assay type: ADME, cell-based, Canis lupus familiaris
- condition-label: dog
Below is a list of entries, each paired with its recorded Papp value.
State just the number; it will be interpreted in ×10⁻⁶ cm/s.

{"cpd-smiles": "Cc1c(Nc2nc(N)c3c(C#N)c(N4CCC[C@H]4C)n(C)c3n2)cnn1[C@@H]1CCOC1", "assay-metric": "Papp", "observed-value": 0.7}

Read the entry Cc1c(Nc2nc(N)c3c(C#N)c(N4CCC[C@H]4C)n(C)c3n2)cnn1[C@H]1CCOC1 and write its reported Papp. 1.2

###

- study-target: Leucine-rich repeat serine/threonine-protein kinase 2 (Homo sapiens, UniProt Q5S007)
- Sequence (Q5S007 whole entry): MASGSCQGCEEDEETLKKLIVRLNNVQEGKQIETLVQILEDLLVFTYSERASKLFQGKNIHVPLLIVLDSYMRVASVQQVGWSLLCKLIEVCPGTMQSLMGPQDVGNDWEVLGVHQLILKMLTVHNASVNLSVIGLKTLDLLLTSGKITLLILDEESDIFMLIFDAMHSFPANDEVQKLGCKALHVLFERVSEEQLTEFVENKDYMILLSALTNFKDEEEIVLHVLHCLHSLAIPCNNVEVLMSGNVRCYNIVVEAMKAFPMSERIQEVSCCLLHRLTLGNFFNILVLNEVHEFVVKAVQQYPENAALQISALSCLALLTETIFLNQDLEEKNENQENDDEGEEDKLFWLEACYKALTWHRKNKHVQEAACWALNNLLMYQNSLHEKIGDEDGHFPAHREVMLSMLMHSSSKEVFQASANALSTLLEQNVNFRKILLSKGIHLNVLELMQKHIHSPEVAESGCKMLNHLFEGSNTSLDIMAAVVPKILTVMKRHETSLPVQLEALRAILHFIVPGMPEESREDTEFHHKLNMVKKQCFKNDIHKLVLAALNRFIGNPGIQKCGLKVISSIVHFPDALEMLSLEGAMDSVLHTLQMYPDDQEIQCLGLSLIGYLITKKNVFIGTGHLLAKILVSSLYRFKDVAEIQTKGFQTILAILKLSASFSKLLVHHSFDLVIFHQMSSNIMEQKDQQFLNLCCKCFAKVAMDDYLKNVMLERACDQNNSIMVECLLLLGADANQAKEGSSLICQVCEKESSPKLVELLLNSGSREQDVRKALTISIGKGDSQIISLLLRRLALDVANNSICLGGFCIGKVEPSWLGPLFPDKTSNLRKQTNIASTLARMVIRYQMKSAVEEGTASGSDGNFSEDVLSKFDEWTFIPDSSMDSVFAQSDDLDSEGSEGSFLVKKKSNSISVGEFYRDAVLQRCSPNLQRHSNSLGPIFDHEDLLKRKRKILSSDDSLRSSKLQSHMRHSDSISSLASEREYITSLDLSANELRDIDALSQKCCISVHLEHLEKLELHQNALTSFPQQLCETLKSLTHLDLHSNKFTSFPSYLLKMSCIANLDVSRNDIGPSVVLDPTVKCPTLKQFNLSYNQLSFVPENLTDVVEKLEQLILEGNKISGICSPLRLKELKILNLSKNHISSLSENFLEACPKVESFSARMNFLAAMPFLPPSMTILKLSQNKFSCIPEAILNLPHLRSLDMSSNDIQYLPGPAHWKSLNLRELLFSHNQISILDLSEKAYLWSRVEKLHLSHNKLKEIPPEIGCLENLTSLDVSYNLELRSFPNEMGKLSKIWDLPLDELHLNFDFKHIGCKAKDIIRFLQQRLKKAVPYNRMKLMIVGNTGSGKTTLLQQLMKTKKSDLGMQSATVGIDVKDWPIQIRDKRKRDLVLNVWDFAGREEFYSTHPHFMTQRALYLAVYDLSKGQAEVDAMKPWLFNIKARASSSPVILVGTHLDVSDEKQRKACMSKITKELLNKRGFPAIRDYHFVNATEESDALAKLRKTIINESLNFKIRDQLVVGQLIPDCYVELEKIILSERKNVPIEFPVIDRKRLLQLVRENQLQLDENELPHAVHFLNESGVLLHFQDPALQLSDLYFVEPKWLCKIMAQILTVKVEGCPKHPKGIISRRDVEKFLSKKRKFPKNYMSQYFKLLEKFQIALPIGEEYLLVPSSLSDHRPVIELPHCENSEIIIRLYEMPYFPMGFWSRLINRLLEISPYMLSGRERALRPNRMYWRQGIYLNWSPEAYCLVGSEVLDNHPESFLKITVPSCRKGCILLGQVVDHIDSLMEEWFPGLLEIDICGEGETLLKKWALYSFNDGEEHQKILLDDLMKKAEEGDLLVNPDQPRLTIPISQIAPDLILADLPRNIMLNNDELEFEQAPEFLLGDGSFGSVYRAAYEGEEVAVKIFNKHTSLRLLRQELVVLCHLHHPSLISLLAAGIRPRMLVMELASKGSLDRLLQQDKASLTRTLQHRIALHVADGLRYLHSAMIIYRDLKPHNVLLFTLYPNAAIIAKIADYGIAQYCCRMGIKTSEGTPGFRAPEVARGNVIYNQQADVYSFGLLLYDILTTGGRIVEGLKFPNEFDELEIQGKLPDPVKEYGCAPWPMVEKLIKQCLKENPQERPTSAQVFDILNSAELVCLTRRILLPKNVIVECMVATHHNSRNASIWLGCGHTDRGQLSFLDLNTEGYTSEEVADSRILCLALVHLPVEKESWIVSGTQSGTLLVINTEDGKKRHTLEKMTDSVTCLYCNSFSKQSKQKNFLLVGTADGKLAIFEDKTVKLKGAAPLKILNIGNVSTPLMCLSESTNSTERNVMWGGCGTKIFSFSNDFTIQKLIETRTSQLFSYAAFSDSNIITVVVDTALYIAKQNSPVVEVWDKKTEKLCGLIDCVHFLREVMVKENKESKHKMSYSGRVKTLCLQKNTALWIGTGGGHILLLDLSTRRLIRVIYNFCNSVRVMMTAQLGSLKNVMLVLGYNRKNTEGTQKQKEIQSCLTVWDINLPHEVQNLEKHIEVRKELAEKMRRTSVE
- protocol: Inhibition of recombinant human LRRK2 WT using fluorescein-labeled LRRKtide as substrate in presence of ATP preincubated for 50 mins followed by anti-phospho-LRRKtide antibody addition and measured after 30 mins by TR-FRET based Lanthascreen kinase activity assay
Form field: IC50 (one value per entry).
Give the number; nM is assumed, so skip it.

{"compound": "C[C@@H]1CCCN1c1c(C#N)c2c(N)nc(Nc3cn[nH]c3)nc2n1C", "observed-value": 6}

Fill in: IC50 on Leucine-rich repeat serine/threonine-protein kinase 2 (Homo sapiens, UniProt Q5S007), entry C[C@@H]1CCCN1c1c(C#N)c2c(N)nc(Nc3ccn(C)n3)cc2n1C 234

Jot down IC50 (Leucine-rich repeat serine/threonine-protein kinase 2 (Homo sapiens, UniProt Q5S007)) of C[C@@H]1CCCN1c1cc2c(N)ncnc2n1C . 6830

Report value: IC50, system: Leucine-rich repeat serine/threonine-protein kinase 2 (Homo sapiens, UniProt Q5S007), compound: Cc1c(Nc2nc(N)c3c(C#N)c(N4CCC[C@H]4C)n(C)c3n2)cnn1C 75

Give Leucine-rich repeat serine/threonine-protein kinase 2 (Homo sapiens, UniProt Q5S007) IC50 for the following compound: Cc1c(Nc2nc(N)c3c(C#N)c(N4CCC[C@H]4C)n(C)c3n2)cnn1[C@H]1CCOC1 23

Report IC50 from Leucine-rich repeat serine/threonine-protein kinase 2 (Homo sapiens, UniProt Q5S007) testing of Cc1c(Nc2nc(N)c3c(C#N)c(N4CCC[C@H]4C)n(C)c3n2)cnn1CC(C)(C)O 43

Report value only: IC50, Leucine-rich repeat serine/threonine-protein kinase 2 (Homo sapiens, UniProt Q5S007), Cn1c(-c2ccccc2)c(C#N)c2c(N)ncnc21 1260

Give Leucine-rich repeat serine/threonine-protein kinase 2 (Homo sapiens, UniProt Q5S007) IC50 for the following compound: Cc1nn(C2CCOC2)cc1Nc1nc(N)c2c(C#N)c(N3CCC[C@H]3C)n(C)c2n1 (mixture of isomers) 19

Retrieve IC50 on Leucine-rich repeat serine/threonine-protein kinase 2 (Homo sapiens, UniProt Q5S007); query C[C@@H]1CCCN1c1c(C#N)c2c(N)nccc2n1C 34

Please respond with reported IC50 (system Leucine-rich repeat serine/threonine-protein kinase 2 (Homo sapiens, UniProt Q5S007)) for Cc1n[nH]cc1Nc1nc(N)c2c(C#N)c(N3CCC[C@H]3C)n(C)c2n1 . 42
